- System: Kochia (Kochia scoparia)
- Assay Remarks: Test A preemergence
- Format: in vivo
- Run Parameters: 125 g ai/ha, preemergence; 0 to 100 scale (0 no effect, 100 complete control)
Entries and their Plant response rating, Kochia
Lab note: jot the number down without any unit.

Reference set, count: 3
Compound: Cc1ccc(C2CNC(=O)C2C(=O)Nc2cccc(F)c2F)cc1F (racemic)
Property Name: Plant response rating, Kochia
Measured Result: 50
--
Compound: CN1CC(c2ccc(C(F)(F)F)c(F)c2)C(C(=O)Nc2ccccc2S(C)(=O)=O)C1=O (stereo not shown)
Property Name: Plant response rating, Kochia
Measured Result: 70
--
Compound: CC(C)Oc1cccc(C2CNC(=O)C2C(=O)Nc2ccc(F)cc2F)c1 (racemic)
Property Name: Plant response rating, Kochia
Measured Result: 50

-- ask // lookup Plant response rating, Kochia | system=Kochia (Kochia scoparia) | key= CN1CC(c2cccc(C(F)(F)F)c2)C(C)(C(=O)Nc2ccccc2F)C1=O (stereo not shown)
-- reply 50

-- ask // lookup Plant response rating, Kochia | system=Kochia (Kochia scoparia) | key= O=C1NCC(c2ccc(Br)cc2)C1C(=O)Nc1ccc(F)cc1F (stereo not shown)
-- reply 50

-- ask // lookup Plant response rating, Kochia | system=Kochia (Kochia scoparia) | key= COC(=O)c1ccccc1NC(=O)C1C(=O)NCC1c1ccc(F)c(F)c1 (stereo not shown)
-- reply 0

-- ask // lookup Plant response rating, Kochia | system=Kochia (Kochia scoparia) | key= CN1CC(c2ccccc2)C(C(=S)Nc2ccccc2F)C1=O (stereo not shown)
-- reply 0
